Study system: 5-hydroxytryptamine receptor 6 (Homo sapiens)
Assay comment: Displacement of [3H]LSD from human cloned 5-HT6 receptor expressed in HeLa cells after 1 hr by scintillation counter
Assay type: cell-based
Quantity: Ki (nM)
Your answer is read as nM, so omit the unit and give the number.

What value of Ki has been recorded for this entry: NC1CCc2[nH]c3ccc(S(=O)(=O)c4ccccc4)cc3c2C1 (stereo unspecified)
58

###

Hi there, I'd appreciate the recorded Ki for every entry that follows.
Study system: 5-hydroxytryptamine receptor 6 (Homo sapiens)
Assay comment: Displacement of [3H]LSD from human cloned 5-HT6 receptor expressed in HEK293 cells
Type: cell-based
Just the number please, in nM, no unit attached.

Give 5-hydroxytryptamine receptor 6 (Homo sapiens) Ki for CN(C)C1CCc2c(c3ccccc3n2S(=O)(=O)c2ccccc2Br)C1 (racemic)
2.85

I'm curious: which Ki was measured for COc1ccc(S(=O)(=O)n2c3c(c4cc(Br)ccc42)CC(N(C)C)CC3)cc1 (racemic) tested on 5-hydroxytryptamine receptor 6 (Homo sapiens)?
29

# get_value(readout= Ki, system= 5-hydroxytryptamine receptor 6 (Homo sapiens)) for CNC1CCc2c(c3cc(OC)ccc3n2S(=O)(=O)c2cccc(C(F)(F)F)c2)C1 (racemic)
13.1

Record lookup: for 5-hydroxytryptamine receptor 6 (Homo sapiens), what Ki belongs to CN(C)C1CCc2c(c3ccccc3n2S(=O)(=O)c2ccccc2F)C1 (racemic) ?
10.4

Give 5-hydroxytryptamine receptor 6 (Homo sapiens) Ki for CN(C)C1CCc2c(c3cc(Br)ccc3n2S(=O)(=O)c2ccc(F)c(F)c2)C1 (racemic)
29

Fill in the recorded Ki for this molecule, with 5-hydroxytryptamine receptor 6 (Homo sapiens) as test system: NC1CCc2c(c3ccccc3n2S(=O)(=O)c2cccc(C(F)(F)F)c2)C1 (racemic)
73.4

For 5-hydroxytryptamine receptor 6 (Homo sapiens), provide Ki of CN(C)C1CCc2c(c3cc(Cl)ccc3n2S(=O)(=O)c2ccc(Br)cc2)C1 (racemic) please.
41.1

5-hydroxytryptamine receptor 6 (Homo sapiens) / Ki / CN(C)C1CCc2c(c3cc(Cl)ccc3n2S(=O)(=O)c2ccccc2Br)C1 (racemic) : value?
8.13

Value wanted: Ki (5-hydroxytryptamine receptor 6 (Homo sapiens)) of entry CN(C)C1CCc2c(c3cc(Cl)ccc3n2S(=O)(=O)c2cccc(C(F)(F)F)c2)C1 (racemic)
12.2

###

For each of the molecules below, state its inhibition.
Study system: Sodium-dependent serotonin transporter (Homo sapiens)
Assay comment: Inhibition of SERT at 1 uM
Note: unit % is implicit; provide only the numeric part.

Name the reported inhibition value associated with the molecule COc1ccc2c(c1)c1c(n2S(=O)(=O)c2ccccc2)CCC(N(C)C)C1 (racemic)
2.52

Need inhibition of CN(C)C1CCc2c(c3ccccc3n2S(=O)(=O)c2cccc(C(F)(F)F)c2)C1 (racemic) , thanks.
9.14

Using the record for CN(C)C1CCc2c(c3ccccc3n2S(=O)(=O)c2cccc(Cl)c2)C1 (racemic) , report its inhibition.
2.69

GET /values?readout=inhibition&item= CN(C)C1CCc2c(c3cc(Br)ccc3n2S(=O)(=O)c2ccccc2)C1 (racemic)
0

###

Study system: 5-hydroxytryptamine receptor 6 (Homo sapiens, UniProt P50406)
Sequence (P50406 whole entry): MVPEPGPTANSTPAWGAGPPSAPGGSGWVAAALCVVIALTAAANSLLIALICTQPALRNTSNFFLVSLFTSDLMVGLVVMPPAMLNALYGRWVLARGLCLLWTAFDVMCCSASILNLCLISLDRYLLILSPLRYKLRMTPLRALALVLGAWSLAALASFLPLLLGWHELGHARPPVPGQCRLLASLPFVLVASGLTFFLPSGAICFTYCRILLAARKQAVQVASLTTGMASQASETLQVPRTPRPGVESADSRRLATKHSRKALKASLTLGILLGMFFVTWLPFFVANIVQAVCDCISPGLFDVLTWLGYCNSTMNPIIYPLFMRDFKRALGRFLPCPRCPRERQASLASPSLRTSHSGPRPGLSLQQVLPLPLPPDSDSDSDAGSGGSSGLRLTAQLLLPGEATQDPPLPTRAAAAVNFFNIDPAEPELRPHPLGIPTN
Assay comment: Displacement of [3H]LSD from human cloned 5-HT6 receptor expressed in HEK293 cells
Type: cell-based
Quantity: pKi
Please note pKi is a logarithmic value: minus log10 of concentration in mol/L. Answer with that number alone.

May I ask what pKi has been recorded for CC(C)c1ccc(S(=O)(=O)n2c3c(c4cc(Br)ccc42)CC(N(C)C)CC3)cc1 (racemic) ?
8.12

Return reported pKi; argument: CN(C)C1CCc2c(c3ccccc3n2S(=O)(=O)c2cccc(C(F)(F)F)c2)C1 (racemic)
8.72

Bench note: what pKi did COc1ccc(S(=O)(=O)n2c3c(c4cc(OC)ccc42)CC(N(C)C)CC3)cc1 (racemic) show?
7.70

Query (compound): CN(C)C1CCc2c(c3ccccc3n2S(=O)(=O)c2ccccc2)C1 (racemic) ; field requested: pKi
8.05

Item under review: COc1ccc(S(=O)(=O)n2c3c(c4ccccc42)CC(N(C)C)CC3)cc1 (racemic) . Reported pKi?
7.69

Could you tell me which pKi is on file for CN(C)C1CCc2c(c3cc(Cl)ccc3n2S(=O)(=O)c2ccccc2)C1 (racemic) ?
7.79

// query pKi value for entry COc1ccc2c(c1)c1c(n2S(=O)(=O)c2ccccc2Cl)CCC(N(C)C)C1 (racemic)
8.33

Given COc1ccc2c(c1)c1c(n2S(=O)(=O)c2cccc(C(F)(F)F)c2)CCC(N(C)C)C1 (racemic) , state its recorded pKi.
8.43

Record request: pKi value, item CN(C)C1CCc2c(c3cc(Br)ccc3n2S(=O)(=O)c2cc(C(F)(F)F)ccc2Cl)C1 (racemic)
7.15

Fill in the blank: the reported pKi of Cc1ccc(S(=O)(=O)n2c3c(c4ccccc42)CC(N(C)C)CC3)cc1 (racemic) is ____.
8.08

Query: pKi; subject: CN(C)C1CCc2c(c3ccccc3n2S(=O)(=O)c2ccccc2Cl)C1 (racemic)
8.04

Can you look up the measured pKi of CSc1ccc2c(c1)c1c(n2S(=O)(=O)c2cccc(Cl)c2)CCC(N(C)C)C1 (racemic) for me?
8.57

Measured values drawn from ChEMBL document CHEMBL2163192 for this set.
